From: patent US20250163057A1

# System: fetal hemoglobin gene HBG1
# TEST: HBG1 Nanostring Assay in CD34+ HSPC erythroid differentiation culture
# Assay type: cell-based, human
# CONDITION SUMMARY: HBG1 induction, Day10 of erythroid differentiation
# Procedure: A Nanostring Assay was performed to evaluate the ability of the compounds to induce expression of the fetal hemoglobin gene HBG1 in cells. The data are shown as EC50, with stronger inducers having a lower EC50 value and higher YMax. Forty eight hours later (day −2), the cells were passaged at a density of 200,000 cells/ml (100 ul/well in 96well culture plate) in complete expantion media. […]
Below is a list of entries, each paired with its recorded EC50 value.

# COMPOUND, EC50
rows = [
    ("CCN1C(=O)[C@@H](NC(=O)c2cccc(C(F)(F)F)c2)[C@@H](c2ccc(F)cc2)c2c(CN(C)C#N)nn(-c3ccccc3)c21 [Compound I-129]", "> 1 µM"),
    ("CCN1C(=O)[C@@H](NC(=O)c2cccc(C(F)(F)F)c2)[C@@H](C)c2c(C(=O)N3[C@H](C#N)C[C@H]4C[C@H]43)nn(C3CCOCC3)c21", "≤ 0.1 µM"),
    ("CCN1C(=O)[C@@H](NC(=O)c2cccc(C(F)(F)F)c2)[C@@H](c2ccc(F)cc2)c2c(CN(C)C#N)nn(-c3ccccc3)c21 [Compound I-92]", "0.1 to 1 µM"),
    ("COC(=O)/C=C/CN(C)Cc1nn(-c2ccccc2)c2c1[C@H](c1ccc(F)cc1)[C@H](NC(=O)c1cccc(C(F)(F)F)c1)C(=O)N2CC(C)C", "> 1 µM"),
    ("CCN1C(=O)[C@@H](NC(=O)c2cccc(C(F)(F)F)c2)[C@@H](c2ccc(F)cc2)c2c([C@@H](C)NC#N)nn(-c3ccccc3)c21 (mixture of isomers)", "0.1 to 1 µM"),
    ("CCN1C(=O)[C@@H](NC(=O)c2cccc(C(F)(F)F)c2)[C@@H](c2ccc(F)cc2)c2c(C(=O)N3CCC[C@H]3C#N)nn(C3CCOCC3)c21", "≤ 0.1 µM"),
]

* * *

# ASSAY TARGET: DCN1 (DCUND1) protein PONY domain (Homo sapiens (Human), UniProt Q96GG9)
# Sequence (Q96GG9 60-248): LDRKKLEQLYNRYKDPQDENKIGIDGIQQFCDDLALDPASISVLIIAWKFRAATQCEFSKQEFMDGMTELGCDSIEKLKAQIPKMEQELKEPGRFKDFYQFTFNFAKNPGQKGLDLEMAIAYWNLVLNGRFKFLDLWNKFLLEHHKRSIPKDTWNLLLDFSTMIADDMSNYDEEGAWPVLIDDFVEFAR
# TEST: TR-FRET assay, DCN1 binding with FAM-labeled probe
# CONDITION SUMMARY: TR FRET IC50 1 hr (nM), 1 hr after treatment with compound

# COMPOUND, IC50
rows = [
    ("CCN1C(=O)[C@@H](NC(=O)c2cccc(C(F)(F)F)c2)[C@@H](c2ccc(F)cc2)c2c(C(=O)NCC#N)nn(-c3ccccc3)c21", "1000 to 3000 nM"),
    ("CCN1C(=O)[C@@H](NC(=O)c2ccc3snnc3c2)[C@@H](C2CC2)c2c(C(=O)N3[C@H](C#N)C[C@H]4C[C@H]43)nn(C3CCOCC3)c21", "1000 to 3000 nM"),
    ("CCN1C(=O)[C@@H](NC(=O)c2cccc(C(F)(F)F)c2)[C@@H](c2ccc(F)cc2)c2c(C3(N(C)C#N)CC3)nn(-c3ccccc3)c21 (racemic)", "1000 to 3000 nM"),
]

* * *

Below is a list of entries, each paired with its recorded pIC50 value.
# Tested on: Cullin-3 (CUL3) neddylation
# TEST: AlphaLISA assay for Cullin-3 (CUL3) neddylation in TF 1 cells
# Format: cell-based
# CONDITION SUMMARY: Homo sapiens, TF-1, 3 h, 3 hours treatment
pIC50: −log10 of the molar value.

# COMPOUND, pIC50
rows = [
    ("C=C(CN1CC2CC1C2)C(=O)NCc1nn(-c2ccccc2)c2c1[C@H](c1ccc(F)cc1)[C@H](NC(=O)c1cccc(C(F)(F)F)c1)C(=O)N2CC (mixture of isomers)", "≥ 7.00"),
    ("C=C(CN1CCN(C2COC2)CC1)C(=O)NCc1nn(-c2ccccc2)c2c1[C@@H](c1ccc(F)cc1)[C@H](NC(=O)c1cccc(C(F)(F)F)c1)C(=O)N2CC (racemic)", "≥ 7.00"),
    ("CCN1C(=O)[C@@H](NC(=O)c2cccc(C(F)(F)F)c2)[C@@H](c2ccc(F)cc2)c2c(CN3CC=CS3(=O)=O)nn(-c3ccccc3)c21 (racemic)", "6.00 to 7.00"),
    ("CCN1C(=O)[C@@H](NC(=O)c2cccc(C(F)(F)F)c2)[C@@H](c2ccc(F)cc2)c2c(NC(=O)CCl)nn(-c3ccccc3)c21 (racemic)", "≥ 7.00"),
    ("CCN1C(=O)[C@@H](NC(=O)CN2CC(c3ccccc3)CC2=O)[C@@H](C2CC2)c2c(C(=O)N3[C@H](C#N)C[C@H]4C[C@H]43)nn(C3CCOCC3)c21 (some centres unmarked)", "< 6.00"),
]

* * *

# ASSAY TARGET: DCN1 (DCUND1) protein PONY domain (Homo sapiens (Human))
# TEST: TR-FRET assay, DCN1 binding with FAM-labeled probe
# CONDITION SUMMARY: 24 hr after treatment with compound; read-out: TR FRET IC50 24 hr

# MOLECULE, ASSAY TARGET, IC50
measured = [
    ("CCN1C(=O)[C@@H](NC(=O)c2cccc(C(F)(F)F)c2)[C@@H](c2ccc(F)cc2)c2c(C/C=C/C(N)=O)nn(-c3ccccc3)c21 (racemic)", "DCN1 (DCUND1) protein PONY domain (Homo sapiens (Human))", "1 to 3 µM"),
    ("CCN1C(=O)[C@@H](NC(=O)c2cccc(C(F)(F)F)c2)[C@@H](c2ccc(F)cc2)c2c(C(=O)N3[C@H](C#N)C[C@H]4C[C@H]43)nn([C@@H]3CCOC3)c21 (single isomer, unassigned) [Compound I-482]", "DCN1 (DCUND1) protein PONY domain (Homo sapiens (Human))", "≤ 0.2 µM"),
    ("C=C(C(=O)O)c1nn(-c2ccccc2)c2c1[C@H](c1ccc(F)cc1)[C@H](NC(=O)c1cccc(C(F)(F)F)c1)C(=O)N2CC [Compound I-153]", "DCN1 (DCUND1) protein PONY domain (Homo sapiens (Human))", "≤ 0.2 µM"),
    ("CCN1C(=O)[C@@H](NC(=O)c2cc(F)ccc2C(F)(F)F)[C@@H](C2CC2)c2c(C(=O)N3[C@H](C#N)C[C@H]4C[C@H]43)nn(C3CCOCC3)c21", "DCN1 (DCUND1) protein PONY domain (Homo sapiens (Human))", "1 to 3 µM"),
    ("CCN1C(=O)[C@@H](NC(=O)CS(C)(=O)=O)[C@@H](C2CC2)c2c(C(=O)N3[C@H](C#N)C[C@H]4C[C@H]43)nn(C3CCOCC3)c21", "DCN1 (DCUND1) protein PONY domain (Homo sapiens (Human))", "1 to 3 µM"),
    ("C=C(CN1CC2CCC1CO2)C(=O)NCc1nn(-c2ccccc2)c2c1[C@H](c1ccc(F)cc1)[C@H](NC(=O)c1cccc(C(F)(F)F)c1)C(=O)N2CC (mixture of isomers)", "DCN1 (DCUND1) protein PONY domain (Homo sapiens (Human))", "≤ 0.2 µM"),
    ("CCCn1nc(C(=O)N(CC#N)C2CC2)c2c1N(CC)C(=O)[C@@H](NC(=O)c1cccc(C(F)(F)F)c1)[C@H]2C1CC1", "DCN1 (DCUND1) protein PONY domain (Homo sapiens (Human))", "0.2 to 1 µM"),
    ("CCN1C(=O)[C@@H](NC(=O)c2cccn(C3CC3)c2=O)[C@@H](C2CC2)c2c(C(=O)N3[C@H](C#N)C[C@H]4C[C@H]43)nn(C3CCOCC3)c21 [Compound I-624]", "DCN1 (DCUND1) protein PONY domain (Homo sapiens (Human))", "0.2 to 1 µM"),
    ("CCN1C(=O)[C@H](NC(=O)c2cccc(C(F)(F)F)c2)C(C2CC2)c2c(C(=O)N3CCC[C@H]3C#N)nn(-c3ccccc3)c21 (some centres unmarked)", "DCN1 (DCUND1) protein PONY domain (Homo sapiens (Human))", "1 to 3 µM"),
    ("CCN1C(=O)[C@@H](NC(=O)c2cccc(C(F)(F)F)c2)[C@@H](C2CCC2)c2c(C(=O)N(C)C(C)C#N)nn(C3CCOCC3)c21 (some centres unmarked)", "DCN1 (DCUND1) protein PONY domain (Homo sapiens (Human))", "≤ 0.2 µM"),
    ("CCN1C(=O)[C@@H](NC(=O)c2cccc3c2OCO3)[C@@H](C2CC2)c2c(C(=O)N3[C@H](C#N)C[C@H]4C[C@H]43)nn(C3CCOCC3)c21", "DCN1 (DCUND1) protein PONY domain (Homo sapiens (Human))", "≤ 0.2 µM"),
]

* * *

# ASSAY TARGET: DCN1 (DCUND1) protein PONY domain (Homo sapiens (Human))
# TEST: TR-FRET assay, DCN1 binding with FAM-labeled probe
# CONDITION SUMMARY: 24 hr after treatment with compound; read-out: TR FRET IC50 24 hr
pIC50: −log10 of the molar value.

# MOLECULE, pIC50
data = [
    ("CCN(CC#N)C(=O)c1nn(-c2ccccc2)c2c1[C@@H](c1ccc(F)cc1)[C@@H](NC(=O)c1cccc(C(F)(F)F)c1)C(=O)N2CC (stereo in doubt)", "≥ 6.70"),
    ("CCN1C(=O)[C@@H](NC(=O)c2cccc(C(F)(F)F)c2)[C@@H](c2ccc(F)cc2)c2c(CN(C#N)CCCCN(C)C)nn(-c3ccccc3)c21 (single isomer, unassigned) [Compound I-249]", "6.00 to 6.70"),
    ("C=C(CN1CCC1)C(=O)NCc1nn(-c2ccccc2)c2c1[C@H](c1ccc(F)cc1)[C@H](NC(=O)c1cccc(C(F)(F)F)c1)C(=O)N2CC (racemic) [Compound I-49]", "≥ 6.70"),
    ("C=C(CC(=O)NCc1nn(-c2ccccc2)c2c1[C@H](c1ccc(F)cc1)[C@H](NC(=O)c1cccc(C(F)(F)F)c1)C(=O)N2CC)C(=O)OC (racemic)", "≥ 6.70"),
    ("CCN1C(=O)[C@@H](NC(=O)c2ccc3ccoc3c2)[C@@H](C2CC2)c2c(C(=O)N3[C@H](C#N)C[C@H]4C[C@H]43)nn(C3CCOCC3)c21", "≥ 6.70"),
    ("CCN1C(=O)[C@@H](NC(=O)c2cccc(C(F)(F)F)c2)[C@@H](C2CC2)c2c(C(=O)N3CCC[C@H]3C#N)nn(C3CC3)c21", "6.00 to 6.70"),
    ("C=C(C(=O)OC(C)(C)C)[C@@H](O)c1nn(-c2ccccc2)c2c1[C@H](c1ccc(F)cc1)[C@H](NC(=O)c1cccc(C(F)(F)F)c1)C(=O)N2CC (racemic)", "6.00 to 6.70"),
    ("CCN1C(=O)[C@@H](NC(=O)c2cccc(C(F)(F)F)c2)[C@@H](c2ccc(F)cc2)c2c(C(=O)N(C)[C@H](C#N)CCO)nn(-c3ccccc3)c21 (relative stereo)", "≥ 6.70"),
    ("CCN1C(=O)[C@@H](NC(=O)c2cccc(C(F)(F)F)c2)[C@@H](c2ccc(F)cc2)c2c(CC/C=C\\C(=O)O)nn(-c3ccccc3)c21 (racemic)", "6.00 to 6.70"),
    ("CCN1C(=O)[C@@H](NC(=O)c2cccc(C(F)(F)F)c2)[C@@H](c2ccc(F)cc2)c2c(C(=O)N3CCNC[C@@H]3C#N)nn(-c3ccccc3)c21", "≥ 6.70"),
]
